Tested target: Disks large homolog 4 (Homo sapiens, UniProt P78352)
Protocol summary: Inhibition of PSD-95 PDZ2 domain-GluN2B interaction expressed in COS7 cells transfected with pGFP2-PDZ2 and pRluc-N2B at 500 uM by BRET assay
Assay type: cell-based
Condition description: COS-7
Sequence (P78352 whole entry, looked up, the tested form may be a part): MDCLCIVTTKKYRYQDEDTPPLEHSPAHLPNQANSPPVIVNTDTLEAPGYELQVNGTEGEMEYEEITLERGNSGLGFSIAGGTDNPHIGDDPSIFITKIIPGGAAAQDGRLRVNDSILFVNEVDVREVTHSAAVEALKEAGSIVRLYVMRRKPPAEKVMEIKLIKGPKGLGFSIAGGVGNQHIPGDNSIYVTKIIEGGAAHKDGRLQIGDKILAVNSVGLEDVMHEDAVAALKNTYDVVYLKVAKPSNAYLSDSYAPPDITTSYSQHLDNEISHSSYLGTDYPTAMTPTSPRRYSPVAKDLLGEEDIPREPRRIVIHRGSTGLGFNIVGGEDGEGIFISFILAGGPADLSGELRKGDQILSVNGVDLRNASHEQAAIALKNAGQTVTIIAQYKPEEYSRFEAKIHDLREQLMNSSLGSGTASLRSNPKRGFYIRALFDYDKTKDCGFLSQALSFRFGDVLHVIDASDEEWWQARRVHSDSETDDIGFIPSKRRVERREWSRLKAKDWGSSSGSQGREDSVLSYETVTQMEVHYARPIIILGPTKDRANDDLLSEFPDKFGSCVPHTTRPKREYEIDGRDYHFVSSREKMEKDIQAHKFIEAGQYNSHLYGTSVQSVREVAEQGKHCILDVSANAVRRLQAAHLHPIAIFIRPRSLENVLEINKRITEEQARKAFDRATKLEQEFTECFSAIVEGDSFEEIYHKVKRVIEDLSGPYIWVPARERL
The source made the active and inactive calls. The calls are words filed in the database; no cut-off is given here. Peptide text beside a SMILES is read from it.
Assay metric: inhibition

[
  {
    "Molecule": "CC(C)[C@H](NC(=O)[C@H](CC(=O)O)NC(=O)[C@@H](NC(=O)[C@H](CCC(=O)O)NCCc1ccc(Cl)c(Cl)c1)[C@@H](C)O)C(=O)O",
    "Assay metric": "inhibition",
    "Value measured": "inactive"
  },
  {
    "Molecule": "CC(C)[C@H](NC(=O)[C@H](CC(=O)O)NC(=O)[C@@H](NC(=O)[C@H](CCC(=O)O)NCCc1ccc2ccccc2c1)[C@@H](C)O)C(=O)O",
    "Assay metric": "inhibition",
    "Value measured": "inactive"
  },
  {
    "Molecule": "CC(C)[C@H](NC(=S)[C@H](C)NC(=O)[C@@H](NC(=O)[C@H](CCC(=O)O)NCCc1ccc2ccccc2c1)[C@@H](C)O)C(=O)O",
    "Assay metric": "inhibition",
    "Value measured": "Active"
  },
  {
    "Molecule": "CC(C)[C@H](NC(=O)[C@H](C)NC(=O)[C@@H](NC(=O)[C@@H](N)CCC(=O)O)[C@@H](C)O)C(=O)O",
    "Assay metric": "inhibition",
    "Value measured": "inactive"
  }
]

Query block: Fill blank: measured inhibition of the molecule "CC(C)[C@H](NC(=S)[C@H](C)NC(=O)[C@@H](NC(=O)[C@H](CCC(=O)O)NCCC1CCCCC1)[C@@H](C)O)C(=O)O" is ____.
Result block: Active

Query block: Fill blank: measured inhibition of the molecule CC(C)[C@H](NC(=O)[C@H](CC(=O)O)NC(=O)[C@@H](NC(=O)[C@@H](N)CCC(=O)O)[C@@H](C)O)C(=O)O (H-ETDV-OH) is ____.
Result block: inactive

----------
Tested target: Disks large homolog 4 (Homo sapiens)
Protocol summary: Inhibition of PSD-95 PDZ2 domain by competitive fluorescence polarization assay
Sequence (P78352 whole entry, the tested form may be a part): as the sequence (P78352 whole entry, looked up, the tested form may be a part) above
Assay metric: log10 of Ki (log10 of the value in nM)
In our notation, the value equals log10 of Ki in nM.

[
  {
    "Query smiles": "CN[C@@H](CCC(=O)O)C(=O)N[C@H](C(=O)N[C@@H](C)C(=S)N[C@H](C(=O)O)C(C)C)[C@@H](C)O",
    "Tested target": "Disks large homolog 4 (Homo sapiens)",
    "log10 of Ki": 4.03
  },
  {
    "Query smiles": "CC(C)[C@H](NC(=O)[C@H](C)NC(=O)[C@@H](NC(=O)[C@H](CCC(=O)O)NCCCc1ccc2ccccc2c1)[C@@H](C)O)C(=O)O",
    "Tested target": "Disks large homolog 4 (Homo sapiens)",
    "log10 of Ki": 3.70
  },
  {
    "Query smiles": "CC(C)[C@H](NC(=O)[C@H](C)NC(=O)[C@@H](NC(=O)[C@H](CCC(=O)O)NCCCc1ccc(F)c(F)c1F)[C@@H](C)O)C(=O)O",
    "Tested target": "Disks large homolog 4 (Homo sapiens)",
    "log10 of Ki": 3.62
  },
  {
    "Query smiles": "CN[C@@H](CCC(=O)O)C(=O)N[C@H](C(=O)N[C@@H](C)C(=O)N[C@H](C(=O)O)C(C)C)[C@@H](C)O",
    "Tested target": "Disks large homolog 4 (Homo sapiens)",
    "log10 of Ki": 3.98
  },
  {
    "Query smiles": "CC(C)[C@H](NC(=S)[C@H](C)NC(=O)[C@@H](NC(=O)[C@H](CCC(=O)O)NCCc1ccc2ccccc2c1)[C@@H](C)O)C(=O)O",
    "Tested target": "Disks large homolog 4 (Homo sapiens)",
    "log10 of Ki": 3.04
  },
  {
    "Query smiles": "CC(C)[C@H](NC(=S)[C@H](C)NC(=O)[C@@H](NC(=O)[C@H](CCC(=O)O)NCCc1ccc(Cl)c(Cl)c1)[C@@H](C)O)C(=O)O",
    "Tested target": "Disks large homolog 4 (Homo sapiens)",
    "log10 of Ki": 3.00
  },
  {
    "Query smiles": "CC(C)[C@H](NC(=O)[C@H](C)NC(=O)[C@@H](NC(=O)[C@H](CCC(=O)O)NCCCc1c2ccccc2cc2ccccc12)[C@@H](C)O)C(=O)O",
    "Tested target": "Disks large homolog 4 (Homo sapiens)",
    "log10 of Ki": 3.95
  },
  {
    "Query smiles": "CC(C)[C@H](NC(=O)[C@H](C)NC(=O)[C@@H](NC(=O)[C@H](CCC(=O)O)NCC12CC3CC(CC(C3)C1)C2)[C@@H](C)O)C(=O)O",
    "Tested target": "Disks large homolog 4 (Homo sapiens)",
    "log10 of Ki": 3.32
  }
]

Let us move to another entry and its log10 of Ki.
Query block: Fill blank: measured log10 of Ki of the compound "CC(C)[C@H](NC(=O)[C@H](C)NC(=O)[C@@H](NC(=O)[C@H](CCC(=O)O)NCCc1ccc2ccc3cccc4ccc1c2c34)[C@@H](C)O)C(=O)O" is ____.
Result block: 4.20

----------
Tested target: Disks large homolog 4 (Homo sapiens)
Protocol summary: Inhibition of PSD-95 PDZ2 domain-GluN2B interaction expressed in COS7 cells transfected with pGFP2-PDZ2 and pRluc-N2B at 500 uM by BRET assay
Type: cell-based
Condition description: COS-7
Active and inactive are the calls of the source. The calls are words filed in the database; no cut-off is given here. Peptide text beside a SMILES is read from it.
In this exercise, the only acceptable responses are True (active), False (inactive)

These solved cases illustrate the format of a correct answer.
[
  {
    "Compound": "CC(C)[C@H](NC(=O)[C@H](C)NC(=O)[C@@H](NC(=O)[C@H](CCC(=O)O)NCCC1CCCCC1)[C@@H](C)O)C(=O)O",
    "Classification": "True"
  },
  {
    "Compound": "CC(C)[C@H](NC(=O)[C@H](C)NC(=O)[C@@H](NC(=O)[C@H](CCC(=O)O)NCCc1ccc2ccccc2c1)[C@@H](C)O)C(=O)O",
    "Classification": "True"
  },
  {
    "Compound": "CC(C)[C@H](NC(=O)[C@H](CC(=O)O)NC(=O)[C@@H](NC(=O)[C@H](CCC(=O)O)NCCC1CCCCC1)[C@@H](C)O)C(=O)O",
    "Classification": "False"
  },
  {
    "Compound": "CC(C)[C@H](NC(=O)[C@H](C)NC(=O)[C@@H](NC(=O)[C@H](C)N)[C@@H](C)O)C(=O)O (H-ATAV-OH)",
    "Classification": "False"
  },
  {
    "Compound": "CC(C)[C@H](NC(=S)[C@H](C)NC(=O)[C@@H](NC(=O)[C@H](CCC(=O)O)NCCc1ccc(Cl)c(Cl)c1)[C@@H](C)O)C(=O)O",
    "Classification": "True"
  }
]

Note: attention shifts to another entry.
Query block: I would be grateful if you could indicate the recorded call for "CC(C)[C@H](NC(=O)[C@H](C)NC(=O)[C@@H](NC(=O)[C@H](CCC(=O)O)NCCc1ccc(Cl)c(Cl)c1)[C@@H](C)O)C(=O)O" .
Result block: True

----------
Protocol summary: Stability in human plasma assessed as half life by ESI-LC/MS
Format: ADME, cell-free
Assay metric: log10 half-life (log10 of the value in h)
In our notation, the value equals log10 of half-life in h.

[
  {
    "Query smiles": "CN[C@@H](CCC(=O)O)C(=O)N[C@H](C(=O)N[C@@H](C)C(=O)N[C@H](C(=O)O)C(C)C)[C@@H](C)O",
    "log10 half-life": 0.27
  },
  {
    "Query smiles": "CC(C)[C@H](NC(=O)[C@H](C)NC(=O)[C@@H](NC(=O)[C@H](CCC(=O)O)NCCc1ccc2ccccc2c1)[C@@H](C)O)C(=O)O",
    "log10 half-life": 0.18
  }
]

Query block: Fill blank: measured log10 half-life of the compound "CC(C)[C@H](NC(=O)[C@H](C)NC(=O)[C@@H](NC(=O)[C@H](CCC(=O)O)NCCc1ccc(Cl)c(Cl)c1)[C@@H](C)O)C(=O)O" is ____.
Result block: 0.14

Query block: Fill blank: measured log10 half-life of the compound "CC(C)[C@H](NC(=O)[C@H](C)NC(=O)[C@@H](NC(=O)[C@H](CCC(=O)O)NCCC1CCCCC1)[C@@H](C)O)C(=O)O" is ____.
Result block: -0.32

Query block: Fill blank: measured log10 half-life of the compound "CN[C@@H](CCC(=O)O)C(=O)N[C@H](C(=S)N[C@@H](C)C(=O)N[C@H](C(=O)O)C(C)C)[C@@H](C)O" is ____.
Result block: 0.95
